- System: ANGPTL3 gene
- TEST: ANGPTL3 gRNA/SpCas9 editing in primary cynomolgus hepatocytes (Table 3)
- Format: cell-based, cynomolgus monkey
Would you mind telling me the reported Cyno Primary Hepatocyte Editing % 100 ng/mL of each entry?
One number for each entry, in %.

Worked examples follow.
GA125: ANGPTL3 gRNA; protospacer TGATGGTAAGACACTTTGGT (SEQ ID NO: 123) (nucleic acid, 2'-O-methyl at 1, 2, other sugars, backbone and T or U not given here; further chemistry not fully specified) guide: UGATGGTAAGACACTTTGGTGTTTTAGAGCTAGAAATAGCAAGTTAAAATAAGGCTAGTCCGTTATCAACTTGAAAAAGTGGCACCGAGTCGGTGCTTTT : 12.91
GA128: ANGPTL3 gRNA; protospacer TGAAGAAAGGGAGTAGTTCT (SEQ ID NO: 126) (nucleic acid, 2'-O-methyl at 1, 2, other sugars, backbone and T or U not given here; further chemistry not fully specified) guide: UGAAGAAAGGGAGTAGTTCTGTTTTAGAGCTAGAAATAGCAAGTTAAAATAAGGCTAGTCCGTTATCAACTTGAAAAAGTGGCACCGAGTCGGTGCTTTT : 0.19
GA113: ANGPTL3 gRNA; protospacer ATTCTGGAGGAAATAACTAG (SEQ ID NO: 111) (nucleic acid, 2'-O-methyl at 1, 2, other sugars, backbone and T or U not given here; further chemistry not fully specified) guide: AUTCTGGAGGAAATAACTAGGTTTTAGAGCTAGAAATAGCAAGTTAAAATAAGGCTAGTCCGTTATCAACTTGAAAAAGTGGCACCGAGTCGGTGCTTTT : 12.07

Report Cyno Primary Hepatocyte Editing % 100 ng/mL for every entry below.
1. GA129: ANGPTL3 gRNA; protospacer AGTTCTTGGTGCTCTTGGCT (SEQ ID NO: 127) (nucleic acid, 2'-O-methyl at 1, 2, other sugars and backbone not given here; further chemistry not fully specified) guide: AGTTCTTGGTGCTCTTGGCTGTTTTAGAGCTAGAAATAGCAAGTTAAAATAAGGCTAGTCCGTTATCAACTTGAAAAAGTGGCACCGAGTCGGTGCTTTT
2. GA132: ANGPTL3 gRNA; protospacer GGAAGATAGAGAAATTTCTG (SEQ ID NO: 130) (nucleic acid, 2'-O-methyl at 1, 2, other sugars and backbone not given here; further chemistry not fully specified) guide: GGAAGATAGAGAAATTTCTGGTTTTAGAGCTAGAAATAGCAAGTTAAAATAAGGCTAGTCCGTTATCAACTTGAAAAAGTGGCACCGAGTCGGTGCTTTT

**Result**
1. 5.36
2. 15

Data provenance: patent US20250152746A1
